assay: NCI Yeast Anticancer Drug Screen. Data for the bub3 strain (AID 167); conditions: S. cerevisiae bub3 mutant strain, at 50.0 µM, active compounds read high
About 79,000 compounds went through this panel and 15% of them were active in at least one assay; those are over-represented in the sample as a whole.
Listed next: entries and their corresponding growth inhibition.
recorded.endpoint: growth inhibition (%)

>  <compound>
Cc1cc(CO)c(O)c(CNCc2cc(C)cc(CO)c2O)c1

>  <data.value>
68.8

$$$$
>  <compound>
CCCCCCCCCC/C=C\C(=O)O

>  <data.value>
85.8

$$$$
>  <compound>
O=C(COC(=O)c1cc(O)c(O)c(O)c1)c1ccc(-c2ccccc2)cc1

>  <data.value>
59.2

$$$$
>  <compound>
CC(=O)Cc1ccc[cH-]1.[Fe+2].c1cc[cH-]c1

>  <data.value>
72.5

$$$$
>  <compound>
CC(C)=CC(=O)O[C@@H]1CC(C)(C)CC2C3=CCC4[C@]56CC[C@](O)(OC5)C(C)(C)C6CC[C@@]4(C)C3(C)CC[C@]21C(=O)O (stereo partly drawn)

>  <data.value>
81.3

$$$$
>  <compound>
O=C(Nc1ccc(Cl)cc1)OCC#CCCl

>  <data.value>
18.1

$$$$
>  <compound>
CCOP(=O)(OCC)C(Cc1ccccc1)N=C(c1ccccc1)c1ccccc1 (stereo not drawn)

>  <data.value>
99

$$$$
>  <compound>
CC(C)c1ccccc1NC(=O)/C(Cl)=C(\Cl)C(=O)O

>  <data.value>
8.1

$$$$
>  <compound>
O=S(=O)(CCCl)c1ccccc1Cl

>  <data.value>
90.7

$$$$
>  <compound>
O=C(Nc1ccccc1)C(=O)C(C(=O)c1ccccc1)C(c1ccccc1)c1ccccc1 (stereo not drawn)

>  <data.value>
58.3

$$$$
>  <compound>
Cc1cc(O)cc(O)c1N=Nc1ccc([N+](=O)[O-])cc1

>  <data.value>
43.1

$$$$
>  <compound>
COc1ccc(-c2cn(-c3ccc(I)cc3)c3ncnc(N)c23)cc1

>  <data.value>
13.2

$$$$
>  <compound>
c1ccc2c(c1)sc1cc3ccncc3cc12

>  <data.value>
97.3

$$$$
>  <compound>
CCOC(=O)C(NC(=O)c1ccccc1)(N1CCN(c2cc3c(cc2F)c(=O)c(C(=O)O)cn3C2CC2)CC1)C(F)(F)F (stereo not drawn)

>  <data.value>
-16.1

$$$$
>  <compound>
CC(/C=C/c1ccc2c(c1)OCO2)[N+](=O)[O-] (stereo not drawn)

>  <data.value>
99

$$$$
>  <compound>
O=[n+]1c2ccc(Cl)cc2n([O-])c2ccc(Cl)cc21

>  <data.value>
-7.55

$$$$
>  <compound>
COc1ccc(Br)c(C(=O)Sc2nnnn2-c2cccc(Cl)c2)c1

>  <data.value>
88.2

$$$$
>  <compound>
O=C(O)c1ccccc1-c1ccccc1C(=O)Nc1ccc2c(c1)Cc1ccccc1-2

>  <data.value>
83.2

$$$$
>  <compound>
CCCc1cc(C(=O)OCC)cc(CCC)c1O

>  <data.value>
96.7

$$$$
>  <compound>
COC(=O)c1ccc(NCC2=CC(=O)C=CC2=O)cc1O

>  <data.value>
91.1

$$$$
>  <compound>
Cn1c(=O)c2ccccc2c2ccccc21

>  <data.value>
85.8

$$$$
>  <compound>
FC(F)(F)c1cc(NC(=S)N2c3ccccc3-n3cccc3C2c2cccnc2)cc(C(F)(F)F)c1 (stereo not drawn)

>  <data.value>
26.4

$$$$
>  <compound>
c1ccc(-c2nc3cccnc3s2)cc1

>  <data.value>
-2.7

$$$$
